Target: T1, biotinylated native human ApoC3 (human, UniProt P02656 21-99, biotinylated (site not stated))
T1 construct: also called biotinylated human ApoC3
T1 sequence (P02656 21-99): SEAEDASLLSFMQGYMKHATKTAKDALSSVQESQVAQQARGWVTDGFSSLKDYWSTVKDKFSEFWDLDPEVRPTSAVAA
Assay: SPR, IgG1 over biotinylated ApoC3 on SA chip, pH 7.4
Consider the following binders; for each one, report its Kd.
Note: unit nM is implicit; provide only the numeric part.

Exercise: Which Kd is reported for this binder? mAb1 (antibody, IgG1, V domains shown, Produced as full length IgG1 (kappa) in ExpiCHO-S cells; also called humanized anti-ApoC3 antibody mAb1) VH: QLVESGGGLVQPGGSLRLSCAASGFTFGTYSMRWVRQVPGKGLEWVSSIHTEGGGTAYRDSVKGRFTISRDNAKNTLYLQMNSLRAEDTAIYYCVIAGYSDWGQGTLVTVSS VL: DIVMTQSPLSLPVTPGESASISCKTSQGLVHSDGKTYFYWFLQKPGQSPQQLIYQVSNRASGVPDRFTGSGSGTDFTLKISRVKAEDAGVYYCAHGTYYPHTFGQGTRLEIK
Solution: 0.05

Exercise: Which Kd is reported for this binder? mAb11 (antibody, IgG1, V domains shown, Produced as full length IgG1 (kappa) in ExpiCHO-S cells; also called humanized anti-ApoC3 antibody mAb11) VH: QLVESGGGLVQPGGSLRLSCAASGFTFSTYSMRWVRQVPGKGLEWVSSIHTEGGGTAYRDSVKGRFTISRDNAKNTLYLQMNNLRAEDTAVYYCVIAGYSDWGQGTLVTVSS VL: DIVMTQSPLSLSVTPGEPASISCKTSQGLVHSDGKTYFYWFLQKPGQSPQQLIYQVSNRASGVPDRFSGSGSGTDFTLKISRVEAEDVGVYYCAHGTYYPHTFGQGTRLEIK
Solution: 0.17

Exercise: Which Kd is reported for this binder? mAb10 (antibody, IgG1, V domains shown, Produced as full length IgG1 (kappa) in ExpiCHO-S cells; also called humanized anti-ApoC3 antibody mAb10) VH: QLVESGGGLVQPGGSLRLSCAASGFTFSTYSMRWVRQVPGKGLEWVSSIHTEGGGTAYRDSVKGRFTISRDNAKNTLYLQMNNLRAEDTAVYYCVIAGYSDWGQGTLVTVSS VL: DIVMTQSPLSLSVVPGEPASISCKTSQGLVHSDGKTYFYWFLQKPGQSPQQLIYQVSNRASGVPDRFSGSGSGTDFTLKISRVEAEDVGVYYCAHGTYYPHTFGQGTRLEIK
Solution: 0.1
